Target: recombinant human CXCR2 (Homo sapiens)
Construct: TEV protease site; Gal4-VP16 transcription factor
Sequence (P25025 1-360): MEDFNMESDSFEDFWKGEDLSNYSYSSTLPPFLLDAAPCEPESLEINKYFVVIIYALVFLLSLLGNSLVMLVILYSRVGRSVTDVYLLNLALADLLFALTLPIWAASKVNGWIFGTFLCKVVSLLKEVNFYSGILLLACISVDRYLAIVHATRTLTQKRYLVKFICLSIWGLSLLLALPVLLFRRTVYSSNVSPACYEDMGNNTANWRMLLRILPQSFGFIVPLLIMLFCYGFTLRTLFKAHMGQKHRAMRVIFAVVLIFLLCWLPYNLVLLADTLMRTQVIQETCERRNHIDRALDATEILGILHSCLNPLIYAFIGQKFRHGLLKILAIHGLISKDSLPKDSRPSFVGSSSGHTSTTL
Test: CXCR2 Tango assay
Format: cell-based
Conditions: mean pIC50 of multiple test results; stimulated with 80 nM hCXCL1; reporter gene blue/green emission ratio; read-out: pIC50 (CXCR2 Tango assay) (converted)
Where a name gives a salt, the structure may show the parent alone.
Kindly supply the reported IC50 values for the records listed here.

Reference set, count: 6
• CC1=CCC[C@H]1NC(=O)Nc1ccc(Cl)c(S(=O)(=O)[C@H]2C[C@H](C(F)F)C2)c1O [Compound 48] = ≤ 1 nM
• CCC1(S(=O)(=O)c2c(Cl)ccc(NC(=O)N[C@@H]3CCC=C3C)c2O)CCOCC1 [Compound 119] = ≤ 1 nM
• CC1=CCC[C@H]1NC(=O)Nc1ccc(Cl)c(S(=O)(=O)N2CCNCC2)c1O [Compound 199, trifluoroacetic acid salt] = ≤ 10 nM
• CC1=CCCC1NC(=O)Nc1ccc(Cl)c(S(=O)(=O)C2CCN3CCCC3C2)c1O (stereo not drawn) [Compound 109, trifluoroacetic acid salt] = ≤ 10 nM
• CC1=CCC[C@H]1NC(=O)Nc1ccc(Cl)c(S(=O)(=O)N2CC(F)C2)c1O [Compound 86, trifluoroacetic acid salt] = ≤ 10 nM
• COC[C@H](C)S(=O)(=O)c1c(Cl)ccc(NC(=O)N[C@@H]2CCC=C2C)c1O [Compound 186] = ≤ 1 nM

Take each entry in turn and give its IC50.
1. [2H]C1(S(=O)(=O)c2c(Cl)ccc(NC(=O)N[C@@H]3CCC=C3C)c2O)CCN(C2CCC2)CC1 [Compound 81, trifluoroacetic acid salt]
2. CC1=CCCC1NC(=O)Nc1ccc(Cl)c(S(=O)(=O)[C@H]2CC[C@@H](N(C)C)CC2)c1O (stereo partly drawn) [Compound 129, trifluoroacetic acid salt]

1: ≤ 1 nM; 2: ≤ 1 nM

Please supply IC50 for each of the following items, keeping them in order.
1. CC1=CCCC1NC(=O)Nc1ccc(Cl)c(S(=O)(=O)N2CCCC2)c1O (stereo not drawn) [Compound 116]
2. CC1=CCC[C@H]1NC(=O)Nc1ccc(Cl)c(S(=O)(=O)C2CCN(C3CCC3)CC2)c1O [Compound 82, trifluoroacetic acid salt]
3. [2H]C([2H])([2H])C1(S(=O)(=O)c2c(Cl)ccc(NC(=O)N[C@@H]3CCC=C3C)c2O)CCOCC1 [Compound 70]

1. ≤ 10 nM
2. ≤ 1 nM
3. ≤ 1 nM

Look at each molecule and report its IC50.
1. CC1=CCCC1NC(=O)Nc1ccc(Cl)c(S(=O)(=O)N2CCN(C)CC2)c1O (stereo not drawn) [Compound 142, trifluoroacetic acid salt]
2. O=C(Nc1ccc(Cl)c(S(=O)(=O)[C@H]2C[C@@H](O)C2)c1O)NC1C=CCC1 (stereo partly drawn) [Compound 164]
3. CC1=C(F)CCC1NC(=O)Nc1ccc(Cl)c(S(=O)(=O)C(C)C)c1O (stereo not drawn) [Compound 17]
4. CC(C)(F)S(=O)(=O)c1c(Cl)ccc(NC(=O)NC2CCC=C2Cl)c1O (stereo not drawn) [Compound 15]
5. CC1=CCC[C@H]1NC(=O)Nc1ccc(Cl)c(S(=O)(=O)n2ccc3cccnc32)c1O [Compound 90]
6. CC1=CCC[C@H]1NC(=O)Nc1ccc(Cl)c(S(=O)(=O)C2CCN(CC(F)F)CC2)c1O [Compound 80, trifluoroacetic acid salt]
7. CC1=CCC[C@H]1NC(=O)Nc1ccc(Cl)c(S(=O)(=O)C(C)(C)C2COC2)c1O [Compound 61]

["≤ 10 nM", "≤ 10 nM", "≤ 10 nM", "≤ 10 nM", "≤ 1 nM", "≤ 10 nM", "≤ 1 nM"]
